# Test: Quantitative High-Throughput drug screen in 47 multiple myeloma cell lines against the NCATS MIPE library collection: Delta47_JCRB cell viability assay (AID 1918925; further: nearly all actives have a fitted effect of over 45% in size)
# Cond: Delta47 myeloma viability, CellTiter-Glo ATP, 48 h; series mostly up to 45.8 µM
Records with an inconclusive call do not appear. Calls of active or inactive are those of the source. The call rests on the fitted dose curve; in most records, active means well fitted cell-killing curve with a large enough effect; inconclusive means small, poorly fitted or top-dose-only effect, or effect the other way; inactive means no such curve, though single readings can be large or run the other way.
Tick one outcome: active, inactive

• CC(NCCc1ccc(O)cc1)C(O)c1ccc(O)cc1 (stereo unspecified) = inactive
• Cc1nn(Cc2ccccc2Cl)c(C)c1CN(C)CC(O)COc1ccc(Cl)cc1 (stereo unspecified) = active
• C[C@@H]1C[C@H]2[C@@H]3CCC4=CC(=O)C=C[C@]4(C)[C@@]3(F)[C@@H](O)C[C@]2(C)[C@@]1(O)C(=O)CO = inactive
• O=C1NC(=O)C(=Cc2ccc(-c3ccc(F)cc3O)o2)S1 = active
• COc1cc2nccc(Oc3ccc(NC(=O)Nc4cc(C)on4)c(Cl)c3)c2cc1OC = active

I would be grateful if you could indicate the recorded call for CC(C)n1c(C=C[C@H](O)C[C@H](O)CC(=O)O)c(-c2ccc(F)cc2)c2ccccc21 .
active

I would be grateful if you could indicate the recorded call for CCOC(=O)N1CCN([N+]([O-])=NOc2cc(ON=[N+]([O-])N3CCN(C(=O)OCC)CC3)c([N+](=O)[O-])cc2[N+](=O)[O-])CC1 .
active

I would be grateful if you could indicate the recorded call for CN[C@@H]1CN(c2ccc3c(=O)c(C(=O)O)cn(-c4nccs4)c3n2)C[C@@H]1OC .
active

I would be grateful if you could indicate the recorded call for CCCCOCCOc1nc(-c2ccc(C(=O)O)c(F)c2)sc1C .
inactive

I would be grateful if you could indicate the recorded call for COc1cc(F)c(C(C)C)cc1-c1ccc(C(F)(F)F)cc1CN1C(=O)O[C@H](c2cc(C(F)(F)F)cc(C(F)(F)F)c2)[C@@H]1C .
inactive

I would be grateful if you could indicate the recorded call for N#CC(c1ccc(Cl)cc1)c1c(Cl)cc(-n2ncc(=O)[nH]c2=O)cc1Cl (stereo unspecified) .
active
